assay: AUC in rat at 10 mg/kg, po; format: ADME, organism-based; set-up: dose 10 mg/kg, route oral; conditions: plasma
MEASUREMENT TYPE: AUC

// AUC lookup, key: "Clc1ccc(Cl)c(O[C@H](c2ccccc2)[C@@H]2CCNC2)c1Cl" 70 ng·h/mL

* * *

assay: in vitro; conditions: human, liver microsomes
Kindly state microsomal CLint for each of the entries shown.

The following molecules have reported results that may help.
[[record]]
molecule = "CCOc1ccccc1O[C@@H](c1ccccc1)[C@@H]1CNCCO1 [ESREBOXETINE]"
endpoint_result = "570 µL/min/mg"

[[record]]
molecule = "Fc1ccc(F)c(O[C@H](c2ccccc2)[C@@H]2CCNC2)c1Cl"
endpoint_result = "115 µL/min/mg"

[[record]]
molecule = "Clc1ccc(Cl)c(O[C@@H](c2ccccc2)[C@H]2CCNC2)c1Cl"
endpoint_result = "< 5 µL/min/mg"


For every record below, what is its microsomal CLint?
1. Clc1cc(Cl)cc(O[C@@H](c2ccccc2)[C@H]2CCNC2)c1
2. COc1cc(Cl)ccc1O[C@@H](c1ccccc1)[C@H]1CCNC1
3. Clc1ccc(Cl)c(O[C@H](c2ccccc2)[C@@H]2CCNC2)c1Cl
4. COc1cc([N+](=O)[O-])ccc1O[C@@H](c1ccccc1)[C@H]1CCNC1
5. Clc1cc(Cl)c(Cl)c(O[C@H](c2ccccc2)[C@@H]2CCNC2)c1
6. Clc1cc(Cl)cc(O[C@H](c2ccccc2)[C@@H]2CCNC2)c1
7. Fc1cc(F)c(F)c(O[C@H](c2ccccc2)[C@@H]2CCNC2)c1F

1. < 5 µL/min/mg
2. < 5 µL/min/mg
3. < 5 µL/min/mg
4. < 5 µL/min/mg
5. < 5 µL/min/mg
6. < 5 µL/min/mg
7. < 5 µL/min/mg

* * *

assay: in vitro; settings: rat, liver microsomes
Could you please mark condition met for values of microsomal CLint below 2000 µL/min/mg and condition not met for values at or above it?

[[record]]
compound = "Clc1ccc(Cl)c(O[C@H](c2ccccc2)[C@@H]2CCNC2)c1Cl"
assigned_category = "condition not met"


I'd appreciate it if you could check whether "Fc1cc(F)c(F)c(O[C@H](c2ccccc2)[C@@H]2CCNC2)c1F" has microsomal CLint smaller than 2000 µL/min/mg. condition met

* * *

Kindly state microsomal CLint for each of the entries shown.
test: in vitro; conditions: rat, liver microsomes
Answers are plain numbers, in µL/min/mg.

The following compounds have reported results that may help.
[[record]]
input_smiles = "COc1cc(Cl)ccc1O[C@@H](c1ccccc1)[C@H]1CCNC1"
units = "µL/min/mg"
endpoint_result = 1990

[[record]]
input_smiles = "Clc1cc(Cl)c(Cl)c(O[C@H](c2ccccc2)[C@@H]2CCNC2)c1"
units = "µL/min/mg"
endpoint_result = 100

[[record]]
input_smiles = "Clc1cc(Cl)cc(O[C@@H](c2ccccc2)[C@H]2CCNC2)c1"
units = "µL/min/mg"
endpoint_result = 4530

[[record]]
input_smiles = "Clc1ccc(Cl)c(O[C@@H](c2ccccc2)[C@H]2CCNC2)c1Cl"
units = "µL/min/mg"
endpoint_result = 4620


For every record below, what is its microsomal CLint?
1. Fc1ccc(O[C@@H](c2ccccc2)[C@H]2CCNC2)c(Cl)c1
2. Fc1ccc(F)c(O[C@@H](c2ccccc2)[C@H]2CCNC2)c1Cl
3. Fc1ccc(F)c(O[C@H](c2ccccc2)[C@@H]2CCNC2)c1Cl
4. CCOc1ccccc1O[C@@H](c1ccccc1)[C@@H]1CNCCO1
5. Clc1cc(Cl)cc(O[C@H](c2ccccc2)[C@@H]2CCNC2)c1

[185, 1660, 1340, 5100, 21]
